TGI by entry:
Test system: OVCAR-4 ovarian
Assay: NCI tumour cell line growth inhibition, 48 h
Entry rule: numbers only, all in µM.

CC1OC(OC2C(O[C@H]3CC[C@@]4(C)C(=CC[C@H]5[C@@H]6C[C@@H]7O[C@]8(CC[C@@H](C)CO8)[C@@H](C)[C@@H]7[C@@]6(C)CC[C@@H]54)C3)OC(CO)C(O)C2O)C(O)C(O)C1O (stereo not given in full) :: 2.47

Item `Cl.Fc1c[c-]c(-c2ccccn2)c(F)c1.[Pt].c1ccc([PH+](C[PH+](c2ccccc2)c2ccccc2)c2ccccc2)cc1` was tested on OVCAR-4 ovarian; the reported TGI is 0.927

Summary: `CC(C)c1ccccc1SCc1cc(=O)cc(CSc2ccccc2C(C)C)o1` , OVCAR-4 ovarian, TGI = 46.9

Item: `COc1cc2ccnc3c(=C(SC)SC)c(=O)c(c1OC)c23` | System: OVCAR-4 ovarian | TGI: 30.2

The recorded TGI with OVCAR-4 ovarian for `Cc1nc2sc(C(=O)c3ccc(Cl)cc3)c(N)c2c(-c2ccccc2Cl)c1C(=O)Nc1ccccc1` was 41

# lookup: CC1(C)Cc2c(Br)c(Br)c(Br)c(OCC(O)CN3CCN(c4ccccn4)CC3)c2O1 (stereo not given) on OVCAR-4 ovarian, TGI = 26.7

====

Tested on: SNB-19 CNS
Assay: NCI tumour cell line growth inhibition, 48 h
Measured TGI by item

Worked set:
CC(C)=CC(=O)c1[nH]c2ccccc2c1CC(=O)NCCc1cncn1C :: > 100 µM
NC(=O)c1sc(-n2cnc3cc(C(F)(F)F)ccc32)cc1OCc1ccccc1Br :: > 25 µM
CN(CCCCCl)P(=O)(OCc1ccc([N+](=O)[O-])o1)OCC1OC(n2cnc([N+](=O)[O-])c2N)C(O)C1O (stereo not given) :: > 100 µM
CC(C)=CC[C@]12CCN(C)[C@H]1N(S(=O)(=O)c1ccccc1)c1ccccc12 :: > 100 µM

Let's switch to this molecule now.
`NC1(Cc2ccc(Cl)cc2)CCN(c2ncnc3[nH]ccc23)CC1` yielded TGI of 21.3 µM

====

Test system: M14 melanoma
Test: NCI tumour cell line growth inhibition, 48 h
Assay readout: TGI (µM)
Provide the reading as a plain figure in µM.

C/C(=N\NC(=S)N1CCCCCC1)c1cccc2cccnc12 :: 14
Clc1ccc(C[P+](c2ccccc2)(c2ccccc2)c2ccccc2)cc1Cl :: 12.5
C(=Nc1ccc(-c2nc3ccccc3s2)cc1)c1ccc[nH]1 :: 34.2

Measured on M14 melanoma, `CCCCNc1ccc(Nc2ccccc2)cc1` has a documented TGI of 31.3

Reading of TGI for `COc1cc(Cl)cc(-c2nn(-c3cccc(NC(=O)Nc4ccc(Cl)c(Cl)c4)c3)cc2-c2ccncc2)c1` with M14 melanoma: 10.9

# lookup: `C=C1C(=O)O[C@H]2C[C@@H]1[C@@H](O)[C@H](O)[C@@H](C)CCCC(C)=CCC[C@@]2(C)O` on M14 melanoma, TGI = 29.8

====

# maps each entry to its TGI
Test system: COLO 205 colon
Test: NCI tumour cell line growth inhibition, 48 h

COc1cccc(SSc2cccc(OC)c2C(=O)O)c1C(=O)O :: > 100 µM
CCOc1ccc2c(c1)c(CC(=O)O)cn2C :: > 100 µM
COc1cnc2c(c1)C(=O)c1c-2n(CCCN2CCC(O)CC2)c(=O)c2cc(Cl)ccc12 :: 2.64 µM
COc1cc2ccnc3c(=C(SC)SC)c(=O)c(c1OC)c23 :: 10.5 µM

# compound `C/C(=N\NC(=S)N1CCCCCC1)c1cccc2cccnc12` ; its TGI = 12.3 µM

The compound `CC(=O)NC1=NC(=O)/C(=C/c2ccc(/C=C3/C(=O)N=C(NC(C)=O)N3C)cc2)N1C` showed TGI equal to > 100 µM

Noted for `CSc1nc(N)c2c(-c3ccccc3)c3c(nc2n1)CCCC3` : its TGI reads > 100 µM

Reported TGI for COc1cc(OC)c2c(c1)OC(c1cccnc1)C(c1ccccc1)C2=O (centres undefined) was > 100 µM

Lab book: TGI of `C#CCN(Cc1ccc2nc(-c3ccccc3)c(N)nc2c1)c1cc(OC)c(OC)c(OC)c1` noted as 42.8 µM

// `CCOC(=O)c1c(SC(=O)c2ccc(OC)cc2)n(-c2ccccc2)c(=S)n(-c2ccccc2)c1=O` : TGI value = > 100 µM

According to the records, this compound CCCCOC(=O)C1CC[C@H]2[C@@H]3CCc4cc(OC(=O)c5cccc6c(=O)c7ccccc7[nH]c56)ccc4[C@H]3CC[C@]12C (some centres undefined) displays TGI of 13.8 µM

`CN(C)c1cccc(F)c1C(=O)NC(=O)Nc1ccc(Cl)cc1` yielded TGI of > 100 µM

Per the record, COc1cc(-c2c3c(cc4c2OCO4)[C@@H](Nc2ccc(-c4ccc(-c5ccc(N[C@@H]6c7cc8c(cc7C(c7cc(OC)c(O)c(OC)c7)[C@H]7C(=O)OC[C@H]67)OCO8)cc5)cc4)cc2)[C@H]2COC(=O)[C@@H]2C3)cc(OC)c1O (some centres undefined) has TGI of 3.34 µM

Quick note, TGI for COc1cc(C(C)O)c[n+](CCC2CNc3ccccc32)c1 (centres undefined) landed at > 100 µM

Recorded result, COC1C(N(C)C)=C(c2ccccc2)C(=O)N2CCc3ccccc3C12 (centres undefined) , TGI: > 100 µM

Looking up `N#CC1=C(O)NC(O)=C(C#N)C1c1ccc(C2C(C#N)=C(O)NC(O)=C2C#N)cc1` , I found its TGI recorded as 63.1 µM

In plain terms, `O=C(/C=C(\C(=O)c1cccs1)c1cccs1)c1ccc(C(=O)/C=C(\C(=O)c2cccs2)c2cccs2)cc1` has a documented TGI of > 100 µM

Reported TGI for `COC(=O)Nc1nc2ccc(S(=O)(=O)N3CCOCC3)cc2[nH]1` was > 100 µM

In plain terms, `O=c1cccc(-c2cccc(=O)[nH]2)[nH]1` has a documented TGI of > 100 µM

====

System: SNB-78 CNS
Assay: NCI tumour cell line growth inhibition, 48 h
Assay readout: TGI

Field: example entries. Status: answers known.
CC(=O)OC1=CC2(OC(C)=O)CC(C)(C)C1C1C(=O)C=CC(=O)C12 (stereo unspecified) :: > 100 µM
N#CC1=C(O)NC(O)=C(C#N)C1c1ccc(C2C(C#N)=C(O)NC(O)=C2C#N)cc1 :: > 100 µM
CCn1c2ccccc2c2c(-c3ccccc3)cc3c(c21)C(=O)N(c1ccccc1)C3=O :: > 100 µM
N#Cc1cccc(C=NC23CC4CC(CC(C4)C2)C3)c1 :: > 100 µM
O=c1[nH]cnc2c(COCCO)c[nH]c12 :: > 100 µM
CC(C)N(C(=O)C12C3C4C1C1C2C3C41C(N)=O)C(C)C (stereo unspecified) :: > 100 µM

Short answer for O=C(CCCN1CCC(C(O)c2ccc(F)cc2)CC1)c1ccc(F)cc1 (stereo unspecified) : TGI was 123 µM

`C=C(C(=C)P(=S)(C(C)C)C(C)C)P(=S)(C(C)C)C(C)C` yielded TGI of > 100 µM

The molecule listed as C=C1C(=O)OC2CC(C)C3C4OC4C(O)C3(C)C(O)C12 (stereo unspecified) shows TGI equal to 61.6 µM

Note to self: TGI recorded for COc1cccc(N2C(=O)C3C4C=C5c6ccccc6N(c6ccccc6)C5(C3C2=O)[C@H]2C(=O)N(c3cccc(OC)c3)C(=O)[C@@H]42)c1 (stereo partly specified) was > 100 µM

// TGI lookup, molecule = `O=c1c2cc3c(cc2c2cccc4c2n1CCC4)OCO3` , result: > 100 µM

====

Test system: OVCAR-5 ovarian
Experiment: NCI tumour cell line growth inhibition, 48 h
Assay readout: TGI

O=c1c2cc3c(cc2c2cccc4c2n1CCC4)OCO3 :: > 100 µM
COC(=O)C1(SC)C2CCC3C2CCC31 (stereo not drawn) :: > 100 µM
CCC(C)C(=O)OCC(=O)c1ccc(-c2ccccc2)cc1 (stereo not drawn) :: > 100 µM
O=C1c2cccnc2C(=O)c2c1c(C(=O)OCCCN1CCCCC1)c1ccccn21 :: 1.83 µM
Nc1nc(N)c2nc3c(nc2n1)CCCCCCCCCC3 :: > 100 µM

Value sought: TGI, system OVCAR-5 ovarian, item `O=[N+]([O-])c1cc2no[n+]([O-])c2cc1N1CCCCC1` . Result: 24.8 µM

Record CCCCOC(=O)C1CC[C@H]2[C@@H]3CCc4cc(OC(=O)c5cccc6c(=O)c7ccccc7[nH]c56)ccc4[C@H]3CC[C@]12C (stereo partly drawn) ; system OVCAR-5 ovarian; TGI = 19.8 µM

Measured on OVCAR-5 ovarian, O=C(CCCN1CCC(C(O)c2ccc(F)cc2)CC1)c1ccc(F)cc1 (stereo not drawn) has a documented TGI of 116 µM

The reported TGI value, OVCAR-5 ovarian, for `C(=Nc1ccc(-c2nc3ccccc3s2)cc1)c1ccc[nH]1` reads 51.4 µM

Lab entry: OVCAR-5 ovarian assay, molecule CC1OC(CC(=O)O)CC2=C1C(=O)c1c(O)cccc1C2=O (stereo not drawn) , TGI = 2.86 µM

The reported OVCAR-5 ovarian TGI of `COc1cc2c(/C=C3/C(=O)Nc4ccc(Cl)cc43)c(Cl)[nH]c2cc1C` is 17.1 µM

GET /values?item= `O=c1c(Cc2ccc(Cl)cc2)nnc2sc(-c3ccc(-c4ccc(Cl)cc4Cl)o3)nn12` &system= OVCAR-5 ovarian returns TGI: > 100 µM

Tested on OVCAR-5 ovarian: NC(Cc1ccc2nc3c4ccccc4c(=O)cc-3oc2c1)C(=O)O (stereo not drawn) . Observed TGI: > 100 µM

Record NC(CSSCC(N)C(=O)O)C(=O)O (stereo not drawn) has OVCAR-5 ovarian TGI equal to > 100 µM

Measured TGI (OVCAR-5 ovarian), entry C=C(Cl)C(Cl)(CCl)CCC(Br)C(C)(C)Br (stereo not drawn) : > 10 µM

Per the reported OVCAR-5 ovarian data, `N#CC(C#N)=C/C=C(\Sc1ccc(F)cc1Cl)c1ccc(Cl)cc1` has TGI of 2.61 µM

Known value: OVCAR-5 ovarian TGI of the molecule COc1cccc(N2C(=O)C3C4C=C5c6ccccc6N(c6ccccc6)C5(C3C2=O)[C@H]2C(=O)N(c3cccc(OC)c3)C(=O)[C@@H]42)c1 (stereo partly drawn) equals > 100 µM

Noted TGI for O=C1N(Cc2ccccc2Cl)c2ccccc2C12NN=C(c1cccc(Cl)c1)S2 (stereo not drawn) , tested on OVCAR-5 ovarian: 3.76 µM

From: PubChem BioAssay (NCI)
